Origin of the recorded values: the Immune Epitope Database (IEDB)

molecular target: HLA-A*29:02; assay: IEDB peptide-MHC binding, purified MHC/competitive/radioactivity; filed as Kd, often an IC50 or EC50 that approximates it; bounds were set here for any values at or beyond the usual limits of such assays; settings: source organism: Mammarenavirus guanaritoense
experimental.readout: pKd
On this scale, pKd is minus log10 of a concentration expressed in M (mol/L).

[Q] Tell me the measured pKd of QQICSNFKI , please.
[A] 5.42

----------
molecular target: HLA-C*04:01; assay: IEDB peptide-MHC binding, purified MHC/direct/fluorescence; filed as Kd, often an IC50 or EC50 that approximates it; bounds were set here for any values at or beyond the usual limits of such assays; settings: source organism: Escherichia coli 536
experimental.readout: Kd

[Q] Tell me the measured Kd of FMFDSDEAM , please.
[A] ≥ 20 µM
